Target: T1, PUF4 RNA-binding domain (Saccharomyces cerevisiae, UniProt P25339 537-888)
T1 sequence: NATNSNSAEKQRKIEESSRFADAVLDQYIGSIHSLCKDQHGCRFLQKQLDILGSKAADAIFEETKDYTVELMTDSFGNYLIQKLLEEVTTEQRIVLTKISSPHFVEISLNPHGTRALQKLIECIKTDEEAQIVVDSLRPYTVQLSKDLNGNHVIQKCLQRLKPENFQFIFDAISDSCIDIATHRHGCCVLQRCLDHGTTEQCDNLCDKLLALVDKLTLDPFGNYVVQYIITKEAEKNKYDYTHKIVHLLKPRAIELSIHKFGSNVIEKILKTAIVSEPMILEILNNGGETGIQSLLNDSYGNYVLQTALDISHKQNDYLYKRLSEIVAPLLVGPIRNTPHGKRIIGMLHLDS
Assay: Mg; RNA-MaP; 20 mM Na-HEPES pH 7.4, 30 mM KOAc, 0.75 mM MgCl2, 0.1% Tween-20, 5% glycerol, 0.1 mg/mL BSA, 2 mM DTT; 25 C; 0.0125-409.6 nM protein
Conditions: tags: N-His6-TEV cleaved; C-SNAP kept, Cy3B-labelled; label: tethered on chip by stalled RNA polymerase
pKd: −log10 of the molar value.
Decide using pKd: a value greater than or equal to 7 is TRUE, a smaller one is FALSE.

Please review the following examples before continuing.
1. Id_i_S2_P3E.7_K3.3_C3.3_[T-3C]_[C-2A]_[T-1G]_H3.3_A3.1_F3.1_T3.2 (ssRNA) RNA: UUUGAUUAAUAUGAUAUCGUUCUUUCUCAGACACUAUAUAUUCUUUCUCGAUAUCAUAUUAAUCUUU : FALSE
2. Id_iii_S2_P4E.9_K4.5_C4.3_[T-1A]_H4.1_A4.2_F4.2_T4.2 (ssRNA) RNA: UUUGAUUAAUAUGAUAUCGUUCUUUCUUCAUGUAUUUAAGUUUCUUUCUCGAUAUCAUAUUAAUCUUU : FALSE
3. UCUCUUUGUACAACUUCUCUU (ssRNA) [Ic_S1_P4E.1_K4.1_C4.1_H4.1_A4.1_[T5C]_[T7A]_F4.1_[T8C]_[A9T]_T4.1] : TRUE
4. Ie_S4_P4E.1_K4.1_C4.1_H4.1_[+3C]_A4.1_F4.1_T4.1 (ssRNA) RNA: UUUGACAACUGAUCGUUCUUUCUUGUCAUAUUAUUCUUUCUCGAUCAGUUGUCUUU : TRUE
5. UCUCUUUGUAUUUUGAUCUCUU (ssRNA) [Ib_S1_P5E.1_K5.1_C5.1_H5.1_A5.1_[A7T]_F5.1_[T9G]_T5.1] : TRUE

Request: Does pKd meet or surpass 7 for Ie_S4_P5E.1_K5.1_C5.1_H5.1_A5.1_F5.1_[+9CCC]_T5.1 (ssRNA) RNA: UUUGACAACUGAUCGUUCUUUCUUGUAUUAUUCCCAUUCUUUCUCGAUCAGUUGUCUUU ?
Response: TRUE

Request: Now consider Ic_S2_P4E.1_K4.1_C4.1_H4.1_A4.1_[T5C]_[A6G]_F4.1_[A9T]_T4.1 (ssRNA) RNA: UUUGAUUAAUAUGAUAUCGUUCUUUCUUGUACGUUUUUCUUUCUCGAUAUCAUAUUAAUCUUU and answer again.
Response: TRUE

Request: Now consider UCUCUUAGACACUUAUUACUUCUCUU (ssRNA) [Id_ii_S1_P5E.4_K5.3_C5.2_[C-2A]_[T-1G]_H5.3_A5.1_F5.1_T5.2_[T11C]_[A12T]] and answer again.
Response: FALSE

Request: Now consider ACAAACCCUAUUAUUAACAAAC (ssRNA) [Ib_S3_P5E.1_K5.1_C5.1_H5.1_[T1C]_[G2C]_A5.1_F5.1_T5.1] and answer again.
Response: FALSE
